Measured protectant activity against cucumber downy mildew in vivo by item
System: cucumber downy mildew
Procedure Details: Protectant activity in vivo (whole plant) against cucumber downy mildew
Applied Conditions: dose 400 mg/L

# example entries with known answers
N#Cc1c(Cl)c(Cl)c(Nc2ccc([N+](=O)[O-])cc2Cl)c(C#N)c1Cl; 100%
N#Cc1c(Cl)c(Cl)c(Nc2c(Br)cc([N+](=O)[O-])cc2Br)c(Cl)c1C#N; 100%
N#Cc1c(Cl)c(Cl)c(Nc2cc(C(F)(F)F)ccc2Cl)c(Cl)c1C#N; 100%
N#Cc1c(Cl)c(Cl)c(Nc2c(Cl)cncc2Cl)c(C#N)c1Cl; 100%
COc1cc([N+](=O)[O-])ccc1Nc1c(Cl)c(C#N)c(Cl)c(Cl)c1C#N; 100%
N#Cc1c(F)c(F)c(Nc2ccc(C(F)(F)F)cc2Cl)c(C#N)c1F; 100%

*Q* Please give the measured protectant activity against cucumber downy mildew in vivo for this compound: CN(C)c1c(Cl)c(Nc2c(Cl)cc([N+](=O)[O-])cc2Cl)c(C#N)c(Cl)c1C#N
*A* 100%

*Q* Request: N#Cc1c(Cl)c(Cl)c(Nc2cc(Cl)cnc2Cl)c(Cl)c1C#N
*A* 100%

Taken from patent US8937072B2.
